Would you kindly list GI50 for each of these molecules?
- Test system: K562
- test: NCI tumour cell line growth inhibition, 48 h
Calls of active or inactive are those of the source. No stated cut-off is given here; in the data, active = GI50 up to about 1.1 µM and inactive = higher.

Data request, read-out GI50, for `C/C=C/c1cc2c(c(=O)o1)C(=O)[C@@H](O)[C@H](C)O2` 8.59 µM (inactive)

Data request, read-out GI50, for `C=CC(=O)NC(=N)NC#N` 35.9 µM (inactive)

Data request, read-out GI50, for `Cn1c(-c2cccc(N)c2)[n+](C)c2ccccc21` > 100 µM (inactive)

Data request, read-out GI50, for `CN(/N=C/c1ccnc2ccccc12)c1ccc([N+](=O)[O-])cc1[N+](=O)[O-]` > 100 µM (inactive)

Data request, read-out GI50, for `C/C=C/C=N/N(c1nnc(-c2ccccc2)c(-c2ccccc2)n1)S(=O)(=O)c1ccc(C)cc1` 6.37 µM (inactive)

Data request, read-out GI50, for `Cc1cc(NS(=O)(=O)c2ccc(NC(=O)c3ccc(Cl)c4c(Nc5ccc(S(=O)(=O)Nc6cc(C)on6)cc5)c5ccccc5nc34)cc2)no1` 23.2 µM (inactive)

Data request, read-out GI50, for `C/C=C(/C)C(=O)O[C@H]1C(C)=C[C@]23C(=O)[C@@H](C=C(COC(C)=O)[C@@H](O)[C@]12O)[C@H]1[C@@H](C[C@H]3C)[C@@]1(C)OC(=O)/C(C)=C\C` 0.0205 µM (active)

Data request, read-out GI50, for CC(O)C1(CNc2cc(Cl)nc(N)n2)CCCC1 (stereo not given) > 100 µM (inactive)

Data request, read-out GI50, for CCCCCCC1CC(=O)C1(Cl)Cl (stereo not given) 14.7 µM (inactive)

Data request, read-out GI50, for `CC1=NN(c2nc(N)nc(CN3CCOCC3)n2)C(C)(C)C1` > 100 µM (inactive)

====

- System: A498
- test: NCI tumour cell line growth inhibition, 48 h
The source made the active and inactive calls. Rule as the data show it: active = GI50 up to about 1.1 µM and inactive = higher.
Permitted responses: T = active, F = inactive

Which outcome did this test record for the molecule `CNS(=O)(=O)NNS(=O)(=O)c1ccc(Cl)cc1` ? F

Which outcome did this test record for the molecule O=C(O)CN1C(=O)OC(c2ccccc2)C1=O (stereo unspecified) ? F

Which outcome did this test record for the molecule `O=C1C(=CNc2ccc([N+](=O)[O-])cc2)C(=O)N(c2ccccc2)C(=O)N1c1ccccc1` ? F

Which outcome did this test record for the molecule `CCN(CC)c1ccc2cc(C(N)=O)/c(=N/c3ccc(F)cc3)oc2c1` ? F

Which outcome did this test record for the molecule `O=C1CSCc2sccc21` ? F

Which outcome did this test record for the molecule `c1ccc2c3c(ccc2c1)CSCc1ccc2ccccc2c1-3` ? F

Which outcome did this test record for the molecule CN1CCC2(c3ccccc3)CC(=O)/C(=C/c3ccc(Cl)c(Cl)c3)C1C2.[O-][Cl+3]([O-])([O-])O (stereo unspecified) ? F

Which outcome did this test record for the molecule `O=C(c1ccccc1)c1ccc2[nH]c(-c3c(Cl)c(Cl)c(Cl)c(Cl)c3-c3nnc(-c4ccccc4)o3)nc2c1` ? F

Which outcome did this test record for the molecule `CC1=Nc2nc3ccccc3n2C(C)(C)C1` ? F

Which outcome did this test record for the molecule `CC#Cc1c(C#CC)c(OC)c2c(c1OC)C(=O)c1ccccc1C2=O` ? F

Which outcome did this test record for the molecule CC(C)NCC(O)c1ccc(O)c2ncccc12 (stereo unspecified) ? F

Which outcome did this test record for the molecule `CCOC(=O)/C=C(/C(=O)OCC)n1ccc(=O)[nH]c1=O` ? F

Which outcome did this test record for the molecule CC1(C)OC2C(O)C(CO)OC2(C(F)F)O1 (stereo unspecified) ? F

Which outcome did this test record for the molecule CC(C)[Si](OC12CCC(CC1O)CC2C(=O)O)(C(C)C)C(C)C (stereo unspecified) ? F

Which outcome did this test record for the molecule `COc1cc2nc(-c3c(F)cccc3F)n(Cc3c(F)cccc3F)c2cc1Cc1c(F)cccc1F` ? F

Which outcome did this test record for the molecule COC(=O)c1ccc2c(c1)C(NC(C)=O)CCc1cc(OC)c(OC)c(OC)c1-2 (stereo unspecified) ? T

Which outcome did this test record for the molecule COc1ccc(C(C)c2cc3c(cc2OC)OCO3)cc1 (stereo unspecified) ? T

Which outcome did this test record for the molecule C[C@@]1(c2ccccc2)O[C@@H]2C[C@H]3[C@@H]4CCC5=CC(=O)C=C[C@]5(C)[C@@]4(F)[C@@H](O)C[C@]3(C)[C@]2(C(=O)CO)O1 [AMCINAFIDE] ? F

Which outcome did this test record for the molecule `O=C(CCl)N1CCN(c2ccccc2)CC1` ? F

Which outcome did this test record for the molecule `C=CCCCCn1c2ccccc2c2c(C)c3cnccc3c(C)c21` ? F

Which outcome did this test record for the molecule `C[C@]12CC[C@H]3[C@@H](CCC4=CC(=O)C=C[C@@]43OC(=O)C(F)(F)F)[C@@H]1CCC2=O` ? F
